Target: T1, human Trop-2-hFc (Homo sapiens, UniProt P09758)
T1 construct: Monomeric Trop-2 extracellular domain prepared from papain digestion of Trop-2-Fc fusion protein
T1 sequence (P09758 27-274 limits assumed): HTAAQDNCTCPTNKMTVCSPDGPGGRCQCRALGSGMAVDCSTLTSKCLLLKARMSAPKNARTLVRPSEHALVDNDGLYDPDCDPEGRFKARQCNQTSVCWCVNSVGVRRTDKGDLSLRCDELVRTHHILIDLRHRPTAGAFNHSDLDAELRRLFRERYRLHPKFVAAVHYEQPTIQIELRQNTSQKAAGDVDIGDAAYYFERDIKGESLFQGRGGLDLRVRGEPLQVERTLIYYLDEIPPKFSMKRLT
Experiment: Biacore SPR affinity of chimeric and humanized 7E6 Fab, human Trop-2
Format: binding
Conditions: recombinant Fab fragments injected over captured human Trop-2-hFc
measured_quantity: ka (M⁻¹ s⁻¹)
The answer is to be given in M⁻¹ s⁻¹; state only the numeric part.

response.value for h7E6_SVG: humanized anti-Trop-2 antibody, VL SEQ ID NO: 3, VH SEQ ID NO: 5 (antibody, V domains shown) VH: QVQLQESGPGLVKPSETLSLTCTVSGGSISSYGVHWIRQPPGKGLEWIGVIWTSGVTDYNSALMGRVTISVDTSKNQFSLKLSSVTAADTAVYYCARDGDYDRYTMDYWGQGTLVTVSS VL: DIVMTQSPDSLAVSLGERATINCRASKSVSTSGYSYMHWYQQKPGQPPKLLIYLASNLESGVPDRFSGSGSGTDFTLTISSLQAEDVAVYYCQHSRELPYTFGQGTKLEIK (field: ka) = 97600
